Target protein (sequence): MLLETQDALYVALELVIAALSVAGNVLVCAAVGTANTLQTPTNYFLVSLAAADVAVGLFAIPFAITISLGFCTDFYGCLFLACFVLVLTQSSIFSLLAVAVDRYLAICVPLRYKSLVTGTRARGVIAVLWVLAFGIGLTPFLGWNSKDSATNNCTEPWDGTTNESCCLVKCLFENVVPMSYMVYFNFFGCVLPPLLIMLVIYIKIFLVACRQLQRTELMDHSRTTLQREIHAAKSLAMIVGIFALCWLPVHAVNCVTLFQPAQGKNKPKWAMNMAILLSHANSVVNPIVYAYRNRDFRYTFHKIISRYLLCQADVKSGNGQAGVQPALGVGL
MEASUREMENT NAME: pKi
One number for each entry, as −log10 of the molar value.

Name the reported pKi value associated with the compound CCCn1c(=O)c2nc([C@]34CC[C@](C(=O)NCCC(=O)OC)(CC3)CC4)[nH]c2n(CCC)c1=O
6.30

---

PROTOCOL DETAILS: Aqueous solubility of the compound
Format: physicochemical
PARTICULARS: water
MEASUREMENT NAME: solubility (µg/mL)
Answers are plain numbers, in µg/mL.

// known answers, use as guide
Name the reported solubility value associated with the compound CCCn1c(=O)c2nc([C@]34CC[C@](CCCC(=O)O)(CC3)CC4)[nH]c2n(CCC)c1=O
500

Name the reported solubility value associated with the compound CCCn1c(=O)c2[nH]c([C@]34CC[C@](CCC(=O)O)(CC3)CC4)nc2n(CCC)c1=O
24400

Name the reported solubility value associated with the compound CCCn1c(=O)c2[nH]c([C@H]3CC4C[C@@H]3[C@H]3O[C@@H]43)nc2n(CCC)c1=O
460

Further cases:
Name the reported solubility value associated with the compound CCCn1c(=O)c2nc([C@]34CC[C@](C(=O)O)(CC3)CC4)[nH]c2n(CCC)c1=O
18100

---

Give measured Activity for each item. Keep answers brief.
MEASURED ON: Adenosine receptor A2b (Homo sapiens) (UniProt P29275)
PROTOCOL DETAILS: Displacement of [125I]3-(4-aminobenzyl)-8-phenyloxyacetate-1-propyl-xanthine from human adenosine A2B receptor expressed in HEK cells relative to control
Assay type: cell-based
Set-up: concentration or dose not given beside the values
PARTICULARS: HEK293
One number for each entry, in %.

// known answers, use as guide
Name the reported Activity value associated with the molecule CCCn1c(=O)c2nc([C@H]3CC[C@@H](NC(C)=O)CC3)[nH]c2n(CCC)c1=O
46

Name the reported Activity value associated with the molecule CCCn1c(=O)c2nc(C3CCC(NC(=O)OCc4ccccc4)CC3)[nH]c2n(CCC)c1=O (mixture of isomers)
30

Name the reported Activity value associated with the molecule CCCn1c(=O)c2nc([C@]34CC[C@](C=O)(CC3)CC4)[nH]c2n(CCC)c1=O
14

Further cases:
Name the reported Activity value associated with the molecule CCCn1c(=O)c2nc([C@]34CC[C@](C(=O)NCC(=O)O)(CC3)CC4)[nH]c2n(CCC)c1=O
53

---

Give measured Activity for each item. Keep answers brief.
MEASURED ON: Adenosine receptor A3 (Homo sapiens) (UniProt P0DMS8)
Sequence (P0DMS8 whole entry): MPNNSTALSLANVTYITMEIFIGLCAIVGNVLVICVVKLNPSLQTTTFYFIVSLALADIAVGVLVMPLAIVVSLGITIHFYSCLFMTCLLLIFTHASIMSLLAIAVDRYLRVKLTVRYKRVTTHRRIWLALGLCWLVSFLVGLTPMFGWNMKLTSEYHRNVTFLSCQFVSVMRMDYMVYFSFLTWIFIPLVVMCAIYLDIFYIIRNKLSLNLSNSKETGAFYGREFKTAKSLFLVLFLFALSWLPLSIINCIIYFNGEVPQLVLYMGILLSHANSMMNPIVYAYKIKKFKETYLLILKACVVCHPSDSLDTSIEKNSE
PROTOCOL DETAILS: Displacement of [125I]ABA from human adenosine A3 receptor expressed in HEK cells relative to control
Type: cell-based
Parameters: concentration or dose not given beside the values
PARTICULARS: HEK293
Give bare numbers, in %.

Name the reported Activity value associated with the molecule CCCCNC(=O)[C@H]1CC[C@H](c2nc3c(=O)n(CCC)c(=O)n(CCC)c3[nH]2)CC1
93

Name the reported Activity value associated with the molecule CCCn1c(=O)c2nc([C@H]3CC[C@H](NC(C)=O)CC3)[nH]c2n(CCC)c1=O
100

Name the reported Activity value associated with the molecule CCCn1c(=O)c2nc([C@H]3CC[C@H](COCc4ccccc4)CC3)[nH]c2n(CCC)c1=O
95

Name the reported Activity value associated with the molecule CCCn1c(=O)c2nc(C3CCC(NC(=O)OCc4ccccc4)CC3)[nH]c2n(CCC)c1=O (mixture of isomers)
100

Name the reported Activity value associated with the molecule CCCn1c(=O)c2nc([C@H]3CC[C@H](C(=O)O)CC3)[nH]c2n(CCC)c1=O
88

Below is a list of molecules. For each, state its recorded Activity.
1. CCCn1c(=O)c2nc([C@]34CC[C@](C(=O)O)(CC3)CC4)[nH]c2n(CCC)c1=O
2. CCCn1c(=O)c2nc([C@H]3CC[C@@H](NC(C)=O)CC3)[nH]c2n(CCC)c1=O
3. CCCn1c(=O)c2nc([C@]34CC[C@](C=O)(CC3)CC4)[nH]c2n(CCC)c1=O
4. CCCn1c(=O)c2nc([C@H]3CC[C@H](NC(=O)OCc4ccccc4)CC3)[nH]c2n(CCC)c1=O
5. CCCn1c(=O)c2nc([C@]34CC[C@](C(=O)N5CCC(C(=O)O)CC5)(CC3)CC4)[nH]c2n(CCC)c1=O
6. CCCn1c(=O)c2nc([C@H]3CC[C@H](CO)CC3)[nH]c2n(CCC)c1=O
7. CCCn1c(=O)c2nc([C@]34CC[C@](/C=C/C(=O)O)(CC3)CC4)[nH]c2n(CCC)c1=O

[100, 100, 76, 86, 100, 77, 100]

Below is a list of molecules. For each, state its recorded Activity.
1. CCCn1c(=O)c2nc([C@]34CC[C@](C(=O)N(C)CC(=O)OC)(CC3)CC4)[nH]c2n(CCC)c1=O
2. CCCn1c(=O)c2nc([C@H]3CC[C@H](C(=O)N4CCOCC4)CC3)[nH]c2n(CCC)c1=O

[88, 88]
